Origin of the recorded values: paper PMC10582335

Assay: Pharmacokinetics of rivaroxaban in rats, alone and after multiple doses of almonertinib
Type: in vivo, Sprague-Dawley (SD) rats
Settings: male, Sprague-Dawley, rat, plasma, po, 1 mg/kg, rats, oral rivaroxaban 1 mg/kg after almonertinib 15 mg/kg for nine days (group 6), mean ± SD, n = 6; read-out: CLz/F (converted)
assayReadout: CL/F (mL/min/kg)
Write the answer as a number in mL/min/kg, unit excluded.

Task item: Give a short answer stating reported CL/F for O=C(NC[C@H]1CN(c2ccc(N3CCOCC3=O)cc2)C(=O)O1)c1ccc(Cl)s1 .
Reply: 7.83

###

Test: Pharmacokinetics of apixaban in rats, alone and after multiple doses of almonertinib
Type: in vivo, Sprague-Dawley (SD) rats
Conditions: male, Sprague-Dawley, rat, in vivo, po, 0.5 mg/kg; read-out: MRT0-t
assayReadout: MRT last
The number alone won't do; follow it with the unit.

Task item: Give a short answer stating reported MRT last for COc1ccc(-n2nc(C(N)=O)c3c2C(=O)N(c2ccc(N4CCCCC4=O)cc2)CC3)cc1 .
Reply: 2.19 h
